tested on: NMDA receptor; test: Radioligand binding: displacement of [3H]MK-801 from rat forebrain membranes; conditions: MK-801 binding to membranes
Value type: NMDA receptor binding / affinity

[[record]]
compound = "CCCCCCC(C)(C)c1cc(O)c2c(c1)OC(C)(C)[C@H]1CC=C(Cn3cccn3)C[C@H]21"
value_type = "NMDA receptor binding / affinity"
obs_value = "relatively high affinity"

[[record]]
compound = "CCCCCCC(C)(C)c1cc(O)c2c(c1)OC(C)(C)[C@H]1CC=C(Cn3ccnc3)C[C@H]21 (single isomer, unassigned)"
value_type = "NMDA receptor binding / affinity"
obs_value = "relatively high affinity"


###

target: NMDA receptor; assay: Radioligand binding: displacement of [3H]MK-801 from rat forebrain membranes; settings: inhibition of [3H]MK-801 binding; read-out: inhibition constant (KI)
Value type: Ki (µM)
Numbers only here, please. The scale is µM.

Recorded Ki (compound CCCCCCC(C)(C)c1cc(O)c2c(c1)OC(C)(C)[C@H]1CC=C(CO)C[C@H]21 [211,007-000 HU-211, reference compound] ): 11
